Each item that follows carries a reported STK11 functional score.
B1: library; numbered along this chain (parent)
chain: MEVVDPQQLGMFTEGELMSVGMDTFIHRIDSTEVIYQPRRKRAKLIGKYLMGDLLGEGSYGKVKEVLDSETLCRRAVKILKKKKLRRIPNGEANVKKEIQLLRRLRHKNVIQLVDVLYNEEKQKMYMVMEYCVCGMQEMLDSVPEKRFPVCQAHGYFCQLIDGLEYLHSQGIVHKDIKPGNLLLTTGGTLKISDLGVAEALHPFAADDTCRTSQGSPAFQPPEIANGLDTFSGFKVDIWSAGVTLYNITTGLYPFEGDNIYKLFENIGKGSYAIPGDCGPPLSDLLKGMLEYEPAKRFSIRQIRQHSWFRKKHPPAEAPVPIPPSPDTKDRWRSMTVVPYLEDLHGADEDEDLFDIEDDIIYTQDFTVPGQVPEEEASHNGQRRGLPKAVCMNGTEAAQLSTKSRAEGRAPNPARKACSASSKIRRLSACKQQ

Variants of: B1
Assay: STK11 functional score (HeLa growth suppression), rescaled enrichment; synonymous median = 1, nonsense median = 0 (normalised score)
Conditions: with HeLa; variant type: missense
property-name: STK11 functional score

>>> print(df.to_string())
    variant_annotation  result
 0               G270N     1.4
 1               E256A   0.686
 2               K175N   0.914
 3               C151M   0.331
 4               S334E    1.53
 5               G279E   0.538
 6                D68P    1.08
 7               Q382E     1.2
 8               P281S   0.965
 9               I177Y   0.215
10               G270S    1.47
